residual activity values for the molecules below.
Molecular target: Calcium/calmodulin-dependent protein kinase type 1 (Homo sapiens) (UniProt Q14012)
Sequence (Q14012 whole entry, looked up): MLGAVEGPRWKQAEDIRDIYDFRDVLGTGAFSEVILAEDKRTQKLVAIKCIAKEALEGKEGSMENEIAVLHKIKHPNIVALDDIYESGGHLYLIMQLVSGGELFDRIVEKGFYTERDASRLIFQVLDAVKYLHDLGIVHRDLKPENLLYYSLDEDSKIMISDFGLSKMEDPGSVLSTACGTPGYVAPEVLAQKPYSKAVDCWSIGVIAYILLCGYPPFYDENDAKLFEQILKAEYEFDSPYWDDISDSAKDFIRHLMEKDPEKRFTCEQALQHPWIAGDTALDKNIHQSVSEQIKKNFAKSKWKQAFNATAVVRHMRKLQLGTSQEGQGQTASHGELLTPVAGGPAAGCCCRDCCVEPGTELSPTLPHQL
Settings: at 10 µM
Return type: number; implicit unit %.

Below: 3 molecules and their reported residual activity.
{"Smiles String": "Cc1cncc2cccc(S(=O)(=O)N3CCCN(C(=O)CN)C[C@H]3C)c12", "Assay Endpoint": "residual activity", "Readout Value": 63}
{"Smiles String": "COc1cc2ncnc(N3CCN(C(=O)Nc4ccc(Oc5ccccc5)cc4)CC3)c2cc1OC", "Assay Endpoint": "residual activity", "Readout Value": 97}
{"Smiles String": "Oc1ccc(Nc2nc(-c3ccc(Cl)cc3)cs2)cc1", "Assay Endpoint": "residual activity", "Readout Value": 53}

Next molecule, residual activity to be filled in.
residual activity of CC(=O)c1ccc(N2CCOCC2)cc1O , assay on Calcium/calmodulin-dependent protein kinase type 1 (Homo sapiens) (UniProt Q14012), is 83
